# System: Nonstructural protein 5A (Hepatitis C virus), Q5L478 [UNDEFINED MUTATION]
# Test details: Inhibition of NS5A L31V mutant in Hepatitis C virus subtype 1a infected in human HuH7 cells assessed as reduction in viral replication by luciferase reporter gene assay
# Format: cell-based
# Setup conditions: Huh-7
Endpoint name: EC90 (nM)
API: value field is a number in nM; no unit string.

Example results:
Compound	Tested target	EC90 [nM]
COC(=O)N[C@H](C(=O)N1CCC[C@H]1c1ncc(-c2cc(F)c3c(c2)OC(c2ccc4c(c2)OC(F)(F)O4)n2c-3cc3cc(-c4cnc([C@@H]5CCCN5C(=O)[C@@H](NC(=O)OC)C(C)C)[nH]4)ccc32)[nH]1)C(C)C (some centres not stated)	Nonstructural protein 5A (Hepatitis C virus), Q5L478 [UNDEFINED MUTATION]	0.5
COC(=O)N[C@H](C(=O)N1CCC[C@H]1c1ncc(-c2cc(F)c3c(c2)OC(c2cccc4ccccc24)n2c-3cc3cc(-c4cnc([C@@H]5CCCN5C(=O)[C@@H](NC(=O)OC)C(C)C)[nH]4)ccc32)[nH]1)C(C)C (some centres not stated)	Nonstructural protein 5A (Hepatitis C virus), Q5L478 [UNDEFINED MUTATION]	0.09
COC(=O)N[C@H](C(=O)N1CCC[C@H]1c1ncc(-c2cc(F)c3c(c2)OC(c2ccc4c(c2)O[C@@H](C)CC4)n2c-3cc3cc(-c4cnc([C@@H]5CCCN5C(=O)[C@@H](NC(=O)OC)C(C)C)[nH]4)ccc32)[nH]1)C(C)C (some centres not stated)	Nonstructural protein 5A (Hepatitis C virus), Q5L478 [UNDEFINED MUTATION]	0.04

Task item: // lookup EC90 for COC(=O)N[C@H](C(=O)N1CCC[C@H]1c1ncc(-c2cc(F)c3c(c2)OC(c2ccc4c(c2)OCC4)n2c-3cc3cc(-c4cnc([C@@H]5CCCN5C(=O)[C@@H](NC(=O)OC)C(C)C)[nH]4)ccc32)[nH]1)C(C)C (mixture of isomers)
Reply: 0.5

Task item: Looking for the measured EC90 of COC(=O)N[C@H](C(=O)N1CCC[C@H]1c1ncc(-c2cc(F)c3c(c2)OC(c2ccc4ccccc4c2)n2c-3cc3cc(-c4cnc([C@@H]5CCCN5C(=O)[C@@H](NC(=O)OC)C(C)C)[nH]4)ccc32)[nH]1)C(C)C (some centres not stated) , can you help?
Reply: 0.2

Task item: Can you look up the measured EC90 of COC(=O)N[C@H](C(=O)N1CCC[C@H]1c1ncc(-c2cc(F)c3c(c2)OC(c2ccc4c(c2)O[C@H](C)CC4)n2c-3cc3cc(-c4cnc([C@@H]5CCCN5C(=O)[C@@H](NC(=O)OC)C(C)C)[nH]4)ccc32)[nH]1)C(C)C (some centres not stated) for me?
Reply: 0.02

Task item: I have this compound here, COC(=O)N[C@H](C(=O)N1CCC[C@H]1c1ncc(-c2cc(F)c3c(c2)OC(c2ccc4c(c2)OCO4)n2c-3cc3cc(-c4cnc([C@@H]5CCCN5C(=O)[C@@H](NC(=O)OC)C(C)C)[nH]4)ccc32)[nH]1)C(C)C (some centres not stated) , and I need its recorded EC90.
Reply: 0.2

Task item: Would you kindly share the measured EC90 for COC(=O)N[C@H](C(=O)N1CCC[C@H]1c1ncc(-c2cc(F)c3c(c2)OC(c2ccc4c(c2)OCCC4(F)F)n2c-3cc3cc(-c4cnc([C@@H]5CCCN5C(=O)[C@@H](NC(=O)OC)C(C)C)[nH]4)ccc32)[nH]1)C(C)C (some centres not stated) ?
Reply: 0.01

Task item: May I ask what EC90 has been recorded for COC(=O)N[C@H](C(=O)N1CCC[C@H]1c1ncc(-c2cc(F)c3c(c2)OC(c2ccc4c(c2)OCC[C@@H]4C)n2c-3cc3cc(-c4cnc([C@@H]5CCCN5C(=O)[C@@H](NC(=O)OC)C(C)C)[nH]4)ccc32)[nH]1)C(C)C (some centres not stated) ?
Reply: 0.01

Task item: Item under review: COC(=O)N[C@H](C(=O)N1CCC[C@H]1c1ncc(-c2cc(F)c3c(c2)OC(c2ccc4c(c2)OCCC42CC2)n2c-3cc3cc(-c4cnc([C@@H]5CCCN5C(=O)[C@@H](NC(=O)OC)C(C)C)[nH]4)ccc32)[nH]1)C(C)C.O=C(O)C(F)(F)F.O=C(O)C(F)(F)F (some centres not stated) . Reported EC90?
Reply: 0.006

Task item: Name the recorded EC90 for COC(=O)N[C@H](C(=O)N1CCC[C@H]1c1ncc(-c2ccc3c(c2)OC(c2cccc(-c4ccccc4)c2)n2c-3cc3cc(-c4cnc([C@@H]5CCCN5C(=O)[C@@H](NC(=O)OC)C(C)C)[nH]4)ccc32)[nH]1)C(C)C (mixture of isomers) .
Reply: 1
